# ASSAY SYSTEM: human muscarinic M1 receptor (Homo sapiens)
# Construct: expressed in transfected cells
# Sequence (P11229 whole entry): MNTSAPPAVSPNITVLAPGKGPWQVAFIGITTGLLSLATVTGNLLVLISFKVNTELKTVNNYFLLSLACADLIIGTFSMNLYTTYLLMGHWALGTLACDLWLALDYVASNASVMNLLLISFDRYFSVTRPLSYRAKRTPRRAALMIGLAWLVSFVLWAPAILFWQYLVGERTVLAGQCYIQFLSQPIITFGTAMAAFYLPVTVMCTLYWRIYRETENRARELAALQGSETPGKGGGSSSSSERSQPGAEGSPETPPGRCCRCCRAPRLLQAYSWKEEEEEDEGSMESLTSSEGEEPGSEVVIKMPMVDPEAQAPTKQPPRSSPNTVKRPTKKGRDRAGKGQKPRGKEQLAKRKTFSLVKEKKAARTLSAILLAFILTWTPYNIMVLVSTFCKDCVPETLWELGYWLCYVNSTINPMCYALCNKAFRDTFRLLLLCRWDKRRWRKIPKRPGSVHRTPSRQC
# TEST DESCRIPTION: Alphascreen Surefire phospho-ERK1/2 functional assay, M1
# Type: cell-based
# EXPERIMENTAL SETUP: CHO cells stably expressing human M1; phospho-ERK1/2; read-out: pEC50 M1 (converted)
Recorded EC50 values for a group of compounds are listed next.
Form entry: value (nM) — number only.

Examples with their reported EC50 follow.
{"COMPOUND": "CCOC(=O)N1CCC2(CC(N3CCC4(CC3)OC(=O)N(CC3CC3)C4CC)C2)C1 (single isomer, unassigned) [4-25 Isomer 2 (racemic)]", "RECORDED RESULT": 794}
{"COMPOUND": "[2H]C([2H])([2H])OC(=O)N1CCC2(CC(N3CCC4(CC3)CNC(=O)O4)C2)C1 (single isomer, unassigned) [4-2 Isomer 2]", "RECORDED RESULT": 251}
{"COMPOUND": "COC(=O)N1CCC2(CC(N3CCC4(CC3)CNC(=O)O4)C2)C1 (single isomer, unassigned) [4-1 Isomer 2]", "RECORDED RESULT": 126}
{"COMPOUND": "CCOC(=O)N1CCC2(CC(N3CCC4(CC3)CC(=O)NN4Cc3ccccc3)C2)C1 (single isomer, unassigned) [6-6 Isomer 1]", "RECORDED RESULT": 501}

Give the measured EC50 of CCOC(=O)N1CCC2(CC(N3CCC4(CC3)OC(=O)N(CC)C4(C)C)C2)C1 (single isomer, unassigned) [4-35 Isomer 2] .
1000

Measured values drawn from patent US10167284B2 for this set.
